tested on: CAKI-1; test: NCI tumour cell line growth inhibition, 48 h
Calls of active or inactive are those of the source. No stated cut-off is given here; in the data, active = GI50 up to about 1.1 µM and inactive = higher.
Labels: active, inactive

* O=C(OCc1ccccc1)C(Cc1ccccc1)N(Cc1ccccc1)Cc1ccccc1 (configuration not stated) | inactive
* CC#CS(=O)(=O)c1ccccc1 | active
* [O-][S+]1CSCS1 (configuration not stated) | inactive
* O=c1cc(-c2cc(O)c(O)c(-c3c(O)cc4oc(-c5ccc(O)c(O)c5)cc(=O)c4c3O)c2)oc2cc(O)cc(O)c12 | inactive
* O=C(O)C(O)(c1ccc(-c2ccccc2)cc1)c1ccc(-c2ccccc2)cc1 | inactive
* O=C1N/C(=N/N=C/C(O)C(O)C(O)CO)N/C1=C\c1c[nH]c2ccccc12 (configuration not stated) | inactive
* O=C(CCN1CCC(CCO)CC1)Nc1ccc2c(c1)C(=O)c1ccc(NC(=O)CCN3CCC(CCO)CC3)cc1C2=O | inactive
* O=C(O)[C@@H](NS(=O)(=O)c1ccc2ccccc2c1)c1ccccc1 | inactive
* COC(=O)c1c(C)oc2ccc(OC(C)=O)cc12 | inactive
* CCCCn1c2c(n(CCCC)c1=S)-c1c(n(CCCC)c(=S)n1CCCC)S[Se][Se]S2 | inactive
* CCOP(=O)(OCC)C(C(=O)OC)C(=O)C(=O)Nc1cccc(O)c1 (configuration not stated) | inactive
* OC1(c2ccccc2)CC2CCC(C1)N2CCc1ccccc1 (configuration not stated) | inactive
* COCc1cc2c(cc1/C=C/[N+](=O)[O-])OCO2 | inactive
* COc1cc(C2c3cc4c(cc3[C@H](OCCN(C)C)[C@@H]3COC(=O)C23)OCO4)cc(OC)c1O (some centres not stated) | active
* CCOC(=O)CCc1c(C(=O)OCC)[nH]c(/C=C2\NC(=O)C(C)=C2CC)c1C | inactive
* COC(=O)C1(CCC(C)=O)CCCCCC1=O (configuration not stated) | inactive
* COc1ccc(/C=C/c2nsc(/C=C/c3ccc(OC)cc3)n2)cc1 | inactive
* COc1ccc(OC)c(SC(CC(=O)c2ccccc2)c2ccccc2)c1 (configuration not stated) | inactive
* COc1cc(CCCOC2OC(COC3OCC(O)C(O)C3O)C(O)C(O)C2O)cc2cc(-c3ccc4c(c3)OCO4)oc12 (configuration not stated) | inactive
* COC1(OC)CCCc2c1no[n+]2[O-] | inactive
* OCC(O)COc1c(Cl)ccc(Cl)c1Cl (configuration not stated) | inactive
* O=C1c2ccccc2CC12Cc1ccc3c(c1C2)CCC3 (configuration not stated) | inactive
